- EXPERIMENT: self-splicing fitness, log relative to wild type (ln ratio); higher = more splicing; Tetrahymena group I intron in knt gene, E. coli kanamycin selection, DiMSum; sequences stand for … in CUCUCU…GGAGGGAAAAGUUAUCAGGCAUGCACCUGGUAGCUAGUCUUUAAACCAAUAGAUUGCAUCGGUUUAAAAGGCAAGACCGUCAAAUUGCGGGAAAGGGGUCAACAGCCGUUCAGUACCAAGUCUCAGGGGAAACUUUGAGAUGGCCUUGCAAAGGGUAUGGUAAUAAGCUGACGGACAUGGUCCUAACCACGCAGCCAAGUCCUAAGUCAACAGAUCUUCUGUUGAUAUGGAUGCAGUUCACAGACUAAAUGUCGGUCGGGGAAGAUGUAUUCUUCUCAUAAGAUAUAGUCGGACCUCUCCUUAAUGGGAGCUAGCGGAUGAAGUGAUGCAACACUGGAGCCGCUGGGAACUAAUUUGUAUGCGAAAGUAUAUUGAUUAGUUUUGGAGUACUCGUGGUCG;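 also: selection with 25 µg/mL kanamycin versus none on LB agar overnight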
- RECORDED_CONDITIONS: 30 °C
Entries get a class label from measured self-splicing fitness (ln). See ranges: band 1 = under -3, band 2 = from -3 up to -1, band 3 = -1 and over

Any idea which band `AUUCAGCAAUAUUACGGAGG` is in?
band 2

Form: Item = `UCUAAGCAAUAUUACGGUCA` ; Class = ?
band 2

Hi there! Could you help me figure out the category for `UAAAAGCAAUAUUACGUGGC` please?
band 1

Entry `UCUUAGCAAUAUUACGGGCA` belongs to which category?
band 3

Using the reported self-splicing fitness (ln), which band applies to `GUUGAGCAAUAUUACGCACG` ?
band 1

State the band of `ACUUAGCAAUAUUACGAGAU`
band 2

Note: place this sequence into its band. Item: `CGCGAGCAAUAUUACGCUUA`
band 2

Textbook exercise: identify the category of the sequence given here, `GGAGAGCAAUAUUACGGAUA` , according to its measured value.
band 1

Sort `CUCAAGCAAUAUUACGACAC` into one of the categories.
band 1

Into which category would you place `ACACAGCAAUAUUACGACGU` ?
band 3

Please let me know in which category the item `GCUAAGCAAUAUUACGUUCC` belongs.
band 2

Please classify: `CGACAGCAAUAUUACGUUAC`
band 1

Which category does the recorded self-splicing fitness (ln) put `GCAGAGCAAUAUUACGAGCG` in?
band 2

Place this sequence in its band: `CAGAAGCAAUAUUACGACGA`
band 2

Lab note: which band did `UAAAAGCAAUAUUACGGCUU` land in?
band 3

Which category fits this record: `CUAUAGCAAUAUUACGCCAU`
band 2

// return the class label for `AAUCAGCAAUAUUACGUGGA`
band 3

Tag the class for `AAUAAGCAAUAUUACGCCAA`
band 2

Place this sequence in its band: `UGGAAGCAAUAUUACGAAUA`
band 3

Each sequence maps to one class by self-splicing fitness (ln). Which class for `AAUCAGCAAUAUUACGAAUA` ?
band 3

Using the reported self-splicing fitness (ln), which band applies to `AAUCAGCAAUAUUACGGGCG` ?
band 3

Classify this sequence: `GAUUAGCAAUAUUACGAGUC`
band 1

Any idea which band `UUACAGCAAUAUUACGUGUU` is in?
band 1

For `GCCCAGCAAUAUUACGCCAG` , which self-splicing fitness (ln) bin applies?
band 2

Sort `CCAUAGCAAUAUUACGUCUG` into one of the categories.
band 2

Please let me know in which category the item `CAAUAGCAAUAUUACGGGAC` belongs.
band 2

Lab log: `UCUUAGCAAUAUUACGACUG` — assign self-splicing fitness (ln) category
band 2

Band of `AGUGAGCAAUAUUACGACAG` ?
band 2

Which bin, given its self-splicing fitness (ln), does `GCACAGCAAUAUUACGUCGU` occupy?
band 3

Hey, which category is `GGCAAGCAAUAUUACGCUCA` in, do you know?
band 2

Record `AUGUAGCAAUAUUACGACCG` — which class?
band 3

For this sequence, which bin applies? `CGACAGCAAUAUUACGUAUG`
band 2

Pick a category. Item: `UCAAAGCAAUAUUACGAGCG`
band 3

Kindly identify the class of `GGGUAGCAAUAUUACGACGC` .
band 2
